Reported folding stability dG unfold by item:
- assay_remarks: folding stability dG unfold (combined trypsin and chymotrypsin); higher = more stable

Guide cases for folding stability dG unfold, answers given:
* SAGGSAGGSAGGMKVIKLPGLTVEIEPGYSPSEPVKITITDPKTGKVTEYEIKIPPEELPSAGGSAGGSAGG [r7_834_JUSTAS] | 1.13 kcal/mol
* SAGGSAGGSAGGDSVQIEFPDNGMTITINPNNGPISIMEPDGKKKTYPVDSPEEALDAISAGGSAGGSAGGS [r10_849_TrROS] | 1.14 kcal/mol
* SAGGSAGGSAGKPEIEMEIETRTVRLPDGYLLRFSRMRITLPDGSKFEFLSVEIIRLEDLSAGGSAGGSAGG [r17_312_TrROS_Hall] | 5.38 kcal/mol
* SAGGSAMVETKTFEFEFEFEFENPDGEPATVTVPVTVEVPVLVPVAAPGPPGANGPEKELEELEKESAGGSA [r15_728_TrMRF] | 0.782 kcal/mol
* MKVEIVEVEYDEETKRVRVKLKVDGKLVEIEFDLESGKVTVRIYEDGEEIEIEAESVEDALEKAKELVKEKS [r1_177_TrROS_Hall] | 1.93 kcal/mol

Looking up SAGGSITSTTTLPDGTTVTTTVLPSGVTVVTTSTLDPATGTVSTTTTTLPPSSATTTTTTTTVPPLTSAGGS [r16_230_JUSTAS] , I found its folding stability dG unfold recorded as 2.58 kcal/mol

// SAGGVLTRVEIEIVEPGTGVPKRFEALLETGDDGTITLLLPDGTVIELPPTANIKILSEEVLSPSELSAGGS [r16_223_JUSTAS] : folding stability dG unfold value = 1.37 kcal/mol

----------
- assay_remarks: folding stability dG unfold from chymotrypsin proteolysis; higher = more stable
recorded_endpoint: folding stability dG unfold (kcal/mol)
Numbers only here, please. The scale is kcal/mol.

Answered cases to consult:
• SAGGSAGGSAPWLTIIFRMDTPEMAKEIANWLREDGLDIEVETEPDPNDGRFWVMITIQLPNSAGGSAGGSA [r18_455_TrROS] = 4.24
• SMKILNDPNIKKVIPVFLMLMSPEEFKKLAEKLANGIKKELEEKGFPIPKDIEIKIIPFKSPEELKKALKSA [r9_204_TrMRF] = 2.31
• SAGGSAGGSGYTTTTSTSISLSPTSFTVTTTTTTTDPVTKTTTVTTTTTTVPLPPSLLSLVSSSAGGSAGGS [r12_885_JUSTAS] = 2.97

Measured folding stability dG unfold of SAGGSAGGSGPKPRLIKLTFLLEPGKVEEFAQALRDAGFEIVSVEVEPLPDGGERATVTVRIDSAGGSAGGS [r12_905_TrMRF] : 3.82

In plain terms, SAGGSAGGSAKPTFDNVENLSLEELAKKIAKEAAEKYPDAKNVEVEFRLPNGKSYRIVVDVDSAGGSAGGSA [r18_449_TrMRF] has a documented folding stability dG unfold of 1.26

----------
- assay_remarks: folding stability dG unfold from trypsin proteolysis; higher = more stable
Would you please tag the item t when its folding stability dG unfold is 2 kcal/mol or above, and f when it is below?

- SAGGSAGGSAGGEWRTLYIPIPGMPPEFIETFALELLDDGAKVEDIEWNPNNGYLMITVRSAGGSAGGSAGG [r7_906_TrROS]: f

Request: Does folding stability dG unfold meet or surpass 2 kcal/mol for SAKPVAEGPIRIPNGFEIEITQIKPDKENGEIVIPIEIEMWRPERDPEDPNQPKWEPQEMNIAFTIPLDSAG [r14_888_TrROS] ?
Result: f

Request: Hi team, for SAGGSAGGSAGKKSYVLIKVKNPKTKETHTIVVPEENLEEVLKALASQPNVKVVDIERFPSAGGSAGGSAGG [r11_692_TrROS_Hall] , is the recorded folding stability dG unfold at or above 2 kcal/mol?
Result: t

Request: Exam item: decide whether the reported folding stability dG unfold for SAGGSAGGSEEREYVEVEFEFLARLEDGSLLVTRVRLLLPAEPAELRPEVRSEVLPLAPGEELSAGGSAGGS [r12_811_TrMRF] is at least 2 kcal/mol.
Result: f
